Listed here are compounds together with their documented MIC80.
- System: Aspergillus fumigatus
- testMethodNotes: Antimicrobial activity against Aspergillus fumigatus by broth microdilution method
- Type: functional

OC(CN1CCN(CCCSc2nnc(-c3ccccc3Cl)o2)CC1)(Cn1cncn1)c1ccc(F)cc1F (configuration not stated) | > 64 µg/mL

Consider OC(Cn1cncn1)(Cn1cncn1)c1ccc(F)cc1F . Its measured MIC80 is 8 µg/mL

Just so you know, measured MIC80 for OC(CN1CCN(CCCSc2nnc(-c3cccc(Br)c3)o2)CC1)(Cn1cncn1)c1ccc(F)cc1F (configuration not stated) came out at > 64 µg/mL

Consider OC(CN1CCN(CCCSc2nnc(-c3ccccc3F)o2)CC1)(Cn1cncn1)c1ccc(F)cc1F (configuration not stated) . Its measured MIC80 is > 64 µg/mL

Memo: COc1ccccc1-c1nnc(SCCCN2CCN(CC(O)(Cn3cncn3)c3ccc(F)cc3F)CC2)o1 (configuration not stated) , reported MIC80: > 64 µg/mL

GET /value?item= OC(CN1CCNCC1)(Cn1cncn1)c1ccc(F)cc1F (configuration not stated) &field=MIC80 returns > 64 µg/mL

Per the records, this compound ( CC(=O)N1CCN(c2ccc(OCC3COC(Cn4ccnc4)(c4ccc(Cl)cc4Cl)O3)cc2)CC1 (configuration not stated) ) has MIC80 equal to 2 µg/mL
